For each of the substances below, state its HIV-HXB2D Q40H mutant (fold change in EC50).
- Tested on: HIV mutant virus strain HXB2D with mutation Q40H in the gp41 gene
- method-description: Standard AVE, HXB2D site directed mutant Q40H
- Type: cell-based, HIV-1
- conditions: fold change vs wild type strain HXB2D
- Text: • Standard Anti-Viral-Experiment “AVE” (wild type HIV strain IIIB+HIV strain HXB2D side directed mutants V38A and Q40H) The HIV-1 replication assay measures virus replication (HIV wild type virus strain 111B or HXB2D, or a HIV mutant virus strain HXB2D with mutation V38A or Q40H in the gp41 gene) as an induction of enhanced green fluorescent protein (EGFP) expression. The indicator MT4-LTR-EGFP cells contain an EGFP gene under the control of the HIV-1 LTR promoter sequence. […]
Starred links: 1 amine or outer side, 2 acyl side, 3 side chain; linkers in the order of their positions; H or OH if unused. Non-standard residues stand in square brackets, D forms with d. *: point of attachment. tBuAla = CC(C)(C)C[C@H](N)C(=O)O; Suc = O=C(CCC(=O)[*:2])[*:1]; hCys = N[C@@H](CCS)C(=O)O; Nva = CCC[C@H](N)C(=O)O; Pentanoyl = CCCCC(=O)*; Tba = not defined here
Please respond with just the number, no unit label.

If you can, please state the reported HIV-HXB2D Q40H mutant (fold change in EC50) value of Ac-A[hCys]YAA[hCys]IEALIRKAQEQQEKNEAALR-NH2 (cysteine pairing not given here) [Peptide 80] . 375

I'd like to know its HIV-HXB2D Q40H mutant (fold change in EC50). The substance in question is Suc-CYLACIEELIRKAQEQQEKNEAAL-Tba-NH2 [27] (Suc-CYLACIEELIRKAQEQQEKNEAAL[tBuAla]-NH2; cysteine pairing not given here) [Peptide 27] 307

May I ask what HIV-HXB2D Q40H mutant (fold change in EC50) has been recorded for Pentanoyl-ECYLRCIEELIRKAQEQQEKNEAALR-NH2 (cysteine pairing not given here) [Peptide 91] ? 5

Return reported HIV-HXB2D Q40H mutant (fold change in EC50); argument: Ac-ACYAACIEALIRAAQEQQEKNEAALR-NH2 [Peptide 66] 231

I have this substance here, Ac-ACYLACIEALIRKAQEQQEKNEAALR-NH2 [Peptide 48] , and I need its recorded HIV-HXB2D Q40H mutant (fold change in EC50). 62

Param item = Suc-ACYLACIEALIRA[Nva]QEQQEKNEAALR-NH2 (cysteine pairing not given here) [Peptide 46] ; retrieve measured HIV-HXB2D Q40H mutant (fold change in EC50). 42

Entry Suc-CYLACIEELIRKAQEQQEKNEAAL-Tba-NH2 [24] (Suc-CYLACIEELIRKAQEQQEKNEAAL-{Tba-NH2}; cysteine pairing not given here; reading uncertain; also: printed as Suc-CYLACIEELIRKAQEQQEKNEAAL-Tba-NH2) [Peptide 24] : reported HIV-HXB2D Q40H mutant (fold change in EC50) = ? 321

Can you share its HIV-HXB2D Q40H mutant (fold change in EC50)? I mean this substance: Pentanoyl-ECYLCLIEELIRKAQEQQEKNEAALR-NH2 (cysteine pairing not given here) [Peptide 92] 3

If you can, please state the reported HIV-HXB2D Q40H mutant (fold change in EC50) value of SWETWEREIENYTRQIYRILEESQEQQDRNERDLLE [Sifuvirtide, reference compound] . 2

Look up HIV-HXB2D Q40H mutant (fold change in EC50): Suc-ACYLACIEALIRA-Abu-QEQQEKNEAALR-NH2 [Peptide 47] 261
